biological target: as-TOR2 (TOR2 kinase, analog-sensitive allele) (Saccharomyces cerevisiae, UniProt P32600, L2178A); test: in vitro kinase assay of purified TORC2 at […] ATP
pIC50: −log10 of the molar value.
test readout: pIC50

- Cn1c(=O)n(-c2ccc(C(C)(C)C#N)cc2)c2c3cc(-c4cnc5ccccc5c4)ccc3ncc21 [BEZ235]: 7.30

These entries and their values trace back to paper PMC4007695.
